Entries and their viability at 10 µM values follow.
test system: HCT-15; assay: Antiproliferative activity against human HCT15 cells assessed as cell viability at 10^-5 M incubated for 48 hrs by sulforhodamine B assay relative to control; assay type: functional; conditions: HCT-15, 48 h, read-out: Activity
Dear colleague, please return just the value in %, with no unit written.

{"columns": ["molecule", "unit.descriptor", "viability at 10 µM"],
 "data": [
  ["CCOc1cc2c(c(OCC)c1OCC)C(=O)NC1C2CC(O)C(O)C1O (racemic)", "%", 104],
  ["CCOc1c(OC)cc2c(c1O)C(=O)NC1C2CC(O)C(O)C1O (racemic)", "%", 102],
  ["O=C1NC2C(CC(O)C(O)C2O)c2cc3c(c(O)c21)OCCO3 (racemic)", "%", -11.9]
]}

Query block: Report viability at 10 µM, nothing else, for this molecule: O=C1NC2C(CC(O)C(O)C2O)c2cc3c(c(O)c21)OCO3 (racemic)
Result block: 1.81

Query block: Dear colleague, please send me the reported viability at 10 µM for CCCOc1cc2c(cc1OCC)C1CC(O)C(O)C(O)C1NC2=O (racemic) when you can.
Result block: 112
